Target or system human adenosine A2a receptor (Homo sapiens (Human)); recorded quantity IC50.
assay-readout: IC50 (nM)

These solved cases illustrate the format of a correct answer.
molecule="Nc1nc(N2CCC[C@H]2C(=O)N2CCN(CC(F)(F)C(F)(F)F)CC2)cc2nc(-c3ccco3)nn12 [Example 296]" test_target="human adenosine A2a receptor (Homo sapiens (Human))" assay_readout=IC50 units_of_measure=nM observed_result=0.8
molecule="Nc1nc(N2CCC[C@H]2C(=O)N2C3CCC2CN(C(=O)c2ccccc2)C3)nc2nc(-c3ccco3)nn12 [Example 158]" test_target="human adenosine A2a receptor (Homo sapiens (Human))" assay_readout=IC50 units_of_measure=nM observed_result=12
molecule="CCCCN1CCN(C(=O)[C@@H](Nc2nc(N)n3nc(-c4ccco4)nc3n2)C2CCCCC2)CC1 [Example 187]" test_target="human adenosine A2a receptor (Homo sapiens (Human))" assay_readout=IC50 units_of_measure=nM observed_result=10
molecule="Nc1nc(N2CCC[C@H]2C(=O)N2CCN(C(=O)C3CCS(=O)(=O)CC3)CC2)nc2nc(-c3ccco3)nn12 [Example 106]" test_target="human adenosine A2a receptor (Homo sapiens (Human))" assay_readout=IC50 units_of_measure=nM observed_result=7

I: Nc1nc(N2CCC[C@H]2C(=O)N2CCN(CC3(C(F)(F)F)CC3)CC2)nc2nc(-c3ccco3)nn12 [Example 283]
II: Nc1nc(N2CCC[C@H]2C(=O)N2CCC(C3CCN(CCCC(F)(F)F)CC3)CC2)nc2nc(-c3ccco3)nn12 [Example 291]
III: Nc1nc(N2CC[C@H]2C(=O)N2CCC(C3CCN(CC(F)(F)C(F)F)CC3)CC2)nc2nc(-c3ccco3)nn12 [Example 325]
Inquiry: Falling order of IC50, please. Your answer should be the labels, listed in the requested order.
Reply text: I, III, II
(I: 12 nM, III: 8 nM, II: 5 nM)

====

- test-target: human adenosine A2a receptor (Homo sapiens (Human), UniProt P29274)
- Sequence (P29274 whole entry): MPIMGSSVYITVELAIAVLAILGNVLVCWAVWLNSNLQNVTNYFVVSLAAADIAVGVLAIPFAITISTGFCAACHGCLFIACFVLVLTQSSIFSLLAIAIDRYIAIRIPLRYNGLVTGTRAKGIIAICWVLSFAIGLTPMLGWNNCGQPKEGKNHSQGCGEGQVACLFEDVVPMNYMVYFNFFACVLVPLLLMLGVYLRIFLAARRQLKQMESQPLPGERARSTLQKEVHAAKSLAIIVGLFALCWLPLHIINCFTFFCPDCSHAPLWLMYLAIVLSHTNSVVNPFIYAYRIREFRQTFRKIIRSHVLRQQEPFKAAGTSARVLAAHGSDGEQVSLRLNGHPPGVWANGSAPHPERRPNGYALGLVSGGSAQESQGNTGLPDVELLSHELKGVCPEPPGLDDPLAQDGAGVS
assay-readout: IC50 (nM)

Here is how some compounds turned out for IC50.
compound=CC(C)(O)C(=O)N1CCN(C(=O)[C@@H]2CCN2c2nc(N)n3nc(-c4ccco4)nc3n2)CC1 observed_result=10.8
compound=Nc1nc(N2CCC[C@H]2C(=O)N2CCN(C(=O)c3ccccc3)CC2)nc2nc(-c3nccs3)nn12 observed_result=17

a: Cc1ccc(-c2nc3nc(N4CC[C@H]4C(=O)N4CCN(c5ncccn5)CC4)nc(N)n3n2)o1
b: Nc1nc(N2CCC[C@H]2C(=O)N2CCN(C(=O)c3ccc(C(F)(F)F)cn3)CC2)nc2nc(-c3ccco3)nn12
c: Nc1nc(N[C@@H](Cc2ccccc2)C(=O)N2CCN(Cc3ccc(F)cc3)CC2)nc2nc(-c3ccco3)nn12
Inquiry: Arrange these compounds by their IC50, starting with the largest number. Form entry: labels listed in requested order.
Reply text: b, a, c
(b: 16 nM, a: 1 nM, c: 0.125 nM)

I: Nc1nc(N2CCC[C@H]2C(=O)N2CCN(C3CCCCC3)CC2)nc2nc(-c3ccco3)nn12
II: Nc1nc(N[C@@H](Cc2ccccc2)C(=O)N2CCN(Cc3cccc(F)c3)CC2)nc2nc(-c3ccco3)nn12
III: Nc1nc(N2CC3(CC3)C[C@H]2C(=O)N2CCN(CC(F)(F)F)CC2)nc2nc(-c3ccco3)nn12
IV: Nc1nc(N2CCC[C@H]2C(=O)N2CCN(C(=O)C3(C(F)(F)F)CCCCC3)CC2)nc2nc(-c3ccco3)nn12
Inquiry: Task for the reader: rank each entry by its IC50, from the minimum upward. The response must list the labels following the requested ordering.
Reply text: II, IV, III, I

I: Nc1nc(N2CC[C@H]2C(=O)N2CCN(CC(F)F)CC2)nc2nc(-c3ccco3)nn12
II: Nc1nc(N[C@H](C(=O)N2CCN(CC(F)F)CC2)C2CC2)nc2nc(-c3ccco3)nn12
III: CC(C)[C@H](Nc1nc(N)n2nc(-c3ccco3)nc2n1)C(=O)N1CCN(CC(C)(F)F)CC1
IV: CC(C)[C@H](Nc1nc(N)n2nc(-c3ccco3)nc2n1)C(=O)N1CCN(Cc2ccccc2)CC1
Inquiry: Sort (4 compounds) by IC50: min first. Put the labels in the order asked and list them.
Reply text: I, III, IV, II
(I: 6 nM, III: 10 nM, IV: 15 nM, II: 22 nM)

1: Nc1nc(N2CCC[C@H]2C(=O)N2CCC(CN3CC(F)C3)CC2)nc2nc(-c3ccco3)nn12
2: CC(C)(O)CC(=O)N1CCC(C2CCN(C(=O)[C@@H]3CCN3c3nc(N)n4nc(-c5ccco5)nc4n3)CC2)CC1
Inquiry: Between 1 and 2 , whose measured IC50 reads higher? Give the label of your selection.
Reply text: 1
(1: 17 nM, 2: 11 nM)

1: Nc1nc(N[C@@H](Cc2ccccc2)C(=O)N2CCC(COc3ccccc3)CC2)nc2nc(-c3ccco3)nn12
2: Nc1nc(N[C@@H](CO)C(=O)N2CCN(c3ncccn3)CC2)nc2nc(-c3ccco3)nn12
3: CC(C)(C)[C@H](Nc1nc(N)n2nc(-c3ccco3)nc2n1)C(=O)N1CCN(c2ccc(F)cc2F)CC1
4: Cc1cnc(C(=O)N2CCN(C(=O)[C@@H]3CCCN3c3nc(N)n4nc(-c5ccco5)nc4n3)CC2)s1
Inquiry: Ordering: ascending IC50. Submit the labels in the order that the ranking request calls for.
Reply text: 3, 1, 4, 2

a: CC(C)[C@H](Nc1nc(N)n2nc(-c3ccco3)nc2n1)C(=O)N1CCN(CCC(F)(F)F)CC1
b: Nc1nc(N2CCC[C@H]2C(=O)N2CCC(C3CCN(CC(F)(F)C(F)F)CC3)CC2)nc2nc(-c3ccco3)nn12
c: CCCCCCN1CCN(C(=O)[C@@H]2CCCN2c2nc(N)n3nc(-c4ccco4)nc3n2)CC1
Inquiry: Ranking field: IC50; order: falling. List each label, following the requested order.
Reply text: a, b, c
